B1: glmS ribozyme (parent)
chain: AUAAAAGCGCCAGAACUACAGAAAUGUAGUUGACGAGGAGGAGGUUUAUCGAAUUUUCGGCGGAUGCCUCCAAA

Variants of: B1
Experiment: kcat; higher = faster cleavage; RNA array
Settings: with glucosamine-6-phosphate
This sample holds only a part of the variants without activity.
quantityName: log10(kcat) (log10 of the value in s⁻¹)
Please interpret these as log10 of kcat where kcat is in s⁻¹.

The following variants have reported results that may help.
* A53G U55A | -1.07
* C16G U54A | -2.23
* A64G G66C | -2.54
* G59A C70G | -4.63
* A15C U49G | -3.95
* C11U U65G | -3.58

// for each variant in input: emit log10(kcat)
1. A36C C71G
2. A6C A53G
3. A64U G66A
4. U46C A52U
5. G32A G66C
6. A33U U46C

A.
1: -4.90; 2: -3.93; 3: -3.95; 4: -3.22; 5: -4.26; 6: -4.65

// for each variant in input: emit log10(kcat)
1. A14G C58G
2. G32C U55C
3. A52U C67U
4. C11G C67G C70G
5. G37A U47C

A.
[-3.44, -3.97, -3.47, -4.27, -3.20]

// for each variant in input: emit log10(kcat)
1. G40A G41A U55G
2. G43U C68G

A.
[-4.08, -2.21]

// for each variant in input: emit log10(kcat)
1. U30C A39C
2. U30C U56G
3. C8U C11U C34G A36U
4. A6U C16U
5. A12G U65A
6. U56A A64C

A.
[-3.86, -3.51, -4.97, -3.62, -3.70, -4.19]
